# key: entry, value: growth
- Test system: HOP-92 NSCLC
- measurement_notes: NCI-60 one-dose screen, 48 h (100 = growth as untreated, 0 = no growth, -100 = all killed)
- test_context: 10 µM unless noted
About 83,000 compounds went through this panel and 20% of them were active in at least one assay; those are over-represented in the sample as a whole.
reported_metric: growth (%)

>>> test_value("COC(=O)C(C)NC1=C(Cl)C(=O)C(NC(C)C(=O)OC)=C(Cl)C1=O (configuration not stated)")
101
>>> test_value("C=CCn1c(SCC(=O)Nc2ccc(C(=O)/C=C/c3ccc(Cl)cc3)cc2)nnc1-c1ccc(Cl)cc1")
91
>>> test_value("CC(=O)O[C@H]1[C@H](CC#CC#CC[C@@H]2C[C@]3(C)[C@H]4CC=C5[C@H]6[C@@H](C)[C@H](C)CC[C@]6(C(=O)NCCN(CCN)CCN)CC[C@@]5(C)[C@]4(C)CC[C@H]3C(C)(C)[C@H]2OC(C)=O)C[C@]2(C)[C@H]3CC=C4[C@H]5[C@@H](C)[C@H](C)CC[C@]5(C(=O)NCCN(CCN)CCN)CC[C@@]4(C)[C@]3(C)CC[C@H]2C1(C)C")
48.6
>>> test_value("Fc1ccc(-c2nnc(N3CCOCC3)c3ccccc23)cc1")
103
>>> test_value("O=C1c2ccccc2C2N1CCC1CCc3ccccc3N12 (configuration not stated)")
73.6
>>> test_value("CCSc1ccc([C@@H]2[C@@H](N)C(=O)N2c2cc(OC)c(OC)c(OC)c2)cc1")
113
>>> test_value("O=c1c2sc3ncc(Cl)cc3c2nnn1-c1cccc(Cl)c1")
63.8
